Data provenance is patent US20030068675.

- experimental.system: T1, ZFP SBS#1490 (synthetic)
- T1 chain: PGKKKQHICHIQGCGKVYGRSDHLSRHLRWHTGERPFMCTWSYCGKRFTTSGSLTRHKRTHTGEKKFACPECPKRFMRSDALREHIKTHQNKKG
- measurement.notes: EMSA
- condition.description: tags: MBP fusion

binder: CTGGTTGGG (dsDNA) DNA 1: CTGGTTGGG DNA 2: CCCAACCAG
Kd: 0.04 nM
